Every entry's value here was drawn from ChEMBL document CHEMBL1150291.

Notes on Ki obtained with Sodium-dependent serotonin transporter (Homo sapiens).
Sequence (P31645 whole entry): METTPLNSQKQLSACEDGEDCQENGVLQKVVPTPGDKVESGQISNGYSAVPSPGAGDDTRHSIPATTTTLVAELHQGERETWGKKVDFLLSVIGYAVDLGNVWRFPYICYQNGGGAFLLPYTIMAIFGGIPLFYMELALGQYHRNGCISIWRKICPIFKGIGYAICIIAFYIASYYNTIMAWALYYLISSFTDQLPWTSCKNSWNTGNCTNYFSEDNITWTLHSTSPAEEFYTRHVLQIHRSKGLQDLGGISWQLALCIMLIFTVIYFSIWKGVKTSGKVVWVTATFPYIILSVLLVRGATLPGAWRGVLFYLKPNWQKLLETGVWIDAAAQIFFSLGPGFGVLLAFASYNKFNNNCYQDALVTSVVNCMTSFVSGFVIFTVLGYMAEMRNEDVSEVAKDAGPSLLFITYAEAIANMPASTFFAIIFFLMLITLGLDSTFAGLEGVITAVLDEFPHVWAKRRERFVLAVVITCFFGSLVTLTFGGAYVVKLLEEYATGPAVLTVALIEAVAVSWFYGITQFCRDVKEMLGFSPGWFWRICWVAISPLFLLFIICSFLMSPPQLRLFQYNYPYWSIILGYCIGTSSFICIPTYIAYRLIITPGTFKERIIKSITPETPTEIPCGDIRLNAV
Just the number please, in nM, no unit attached.

Cc1ccc2c(OCCN3CCC(Cc4cccc(NS(C)(=O)=O)c4)CC3)cccc2n1: 1580

We now examine a further compound.
Please respond with reported Ki (system Sodium-dependent serotonin transporter (Homo sapiens)) for `Cc1ccc2c(OCCN3CCC(Cc4cccc(N5CCCS5(=O)=O)c4)CC3)cccc2n1` .
398

----------
Assay: Clearance in rat at 1 mg/kg, iv
Type: ADME, organism-based
Design: dose 1 mg/kg, route intravenous
Settings: in vivo
Cut-off 40 mL/min/kg on clearance: below means class 1, at or above means class 0.

CC(=O)Nc1cccc(CC2CCN(CCOc3cccc4nc(C)ccc34)CC2)c1: class 0

Kindly consider the entry below.
Consider the compound `Cc1ccc2c(OCCN3CCC(Cc4cccc(NC(=O)C(C)C)c4)CC3)cccc2n1` . Is its clearance strictly less than 40 mL/min/kg?
class 0

----------
Ki, UniProt:P28221, per-entry values.
Sequence (P28221 whole entry): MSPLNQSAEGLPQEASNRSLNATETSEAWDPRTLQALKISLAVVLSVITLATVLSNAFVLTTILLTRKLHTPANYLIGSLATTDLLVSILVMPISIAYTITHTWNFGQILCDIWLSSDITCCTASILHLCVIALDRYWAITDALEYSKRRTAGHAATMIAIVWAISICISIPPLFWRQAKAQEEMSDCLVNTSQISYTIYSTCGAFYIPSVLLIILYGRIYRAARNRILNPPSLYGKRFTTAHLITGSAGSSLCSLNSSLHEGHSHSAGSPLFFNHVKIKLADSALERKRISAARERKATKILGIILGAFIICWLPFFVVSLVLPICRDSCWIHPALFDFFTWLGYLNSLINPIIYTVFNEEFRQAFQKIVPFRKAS
Answer in nM, number only, no unit symbol.

Cc1ccc2c(OCCN3CCC(Cc4cccc(NS(=O)(=O)C(C)C)c4)CC3)cccc2n1: 0.398
CC(=O)Nc1ccc(CN2CCN(CCOc3cccc4nc(C)ccc34)CC2)cc1: 200

GET Ki where system = UniProt:P28221 and item = `COc1cccc(CN2CCN(CCOc3cccc4nc(C)ccc34)CC2)c1`
2.51

State recorded Ki with UniProt:P28221, entry `Cc1ccc2c(OCCN3CCC(Cc4cccc(N5CCCC5=O)c4)CC3)cccc2n1` , no comment.
2

Using UniProt:P28221 as the test system, report measured Ki of `CCC(=O)Nc1cccc(CC2CCN(CCOc3cccc4nc(C)ccc34)CC2)c1` .
0.631

// output Ki; input `CCN(C(C)=O)c1cccc(CC2CCN(CCOc3cccc4nc(C)ccc34)CC2)c1` ; system UniProt:P28221
1.58

Find Ki for `Cc1ccc2c(OCCN3CCC(Cc4cccc(NS(C)(=O)=O)c4)CC3)cccc2n1` on UniProt:P28221 and write it down.
0.501

Give Ki for `Cc1ccc2c(OCCN3CCN(Cc4ccccc4)CC3)cccc2n1` tested on UniProt:P28221.
1

----------
Target: Beta-2 adrenergic receptor (Homo sapiens, UniProt P07550)
Sequence (P07550 whole entry): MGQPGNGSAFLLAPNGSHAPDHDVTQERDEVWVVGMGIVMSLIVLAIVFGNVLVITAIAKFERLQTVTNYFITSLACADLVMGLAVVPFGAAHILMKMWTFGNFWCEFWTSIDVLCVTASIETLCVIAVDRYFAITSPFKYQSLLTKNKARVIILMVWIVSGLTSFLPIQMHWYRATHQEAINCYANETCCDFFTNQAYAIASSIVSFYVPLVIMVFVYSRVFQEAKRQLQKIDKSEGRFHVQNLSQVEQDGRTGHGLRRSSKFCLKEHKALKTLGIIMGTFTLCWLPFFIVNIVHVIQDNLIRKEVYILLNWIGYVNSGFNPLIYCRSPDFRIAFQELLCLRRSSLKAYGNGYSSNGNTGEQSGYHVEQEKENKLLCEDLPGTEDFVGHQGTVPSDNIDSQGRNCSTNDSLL
Quantity Kind: Ki (nM)
Just the number please, in nM, no unit attached.

Cc1ccc2c(OCCN3CCC(Cc4cccc(NS(C)(=O)=O)c4)CC3)cccc2n1: 501

Turning now to a further record.
Return reported Ki for target or system Beta-2 adrenergic receptor (Homo sapiens, UniProt P07550), item `Cc1ccc2c(OCCN3CCC(Cc4cccc(N5CCCS5(=O)=O)c4)CC3)cccc2n1` .
1580

----------
What follows is a collection of log10 Ki values obtained with Sodium-dependent serotonin transporter (Rattus norvegicus, UniProt P31652).
Sequence (P31652 whole entry): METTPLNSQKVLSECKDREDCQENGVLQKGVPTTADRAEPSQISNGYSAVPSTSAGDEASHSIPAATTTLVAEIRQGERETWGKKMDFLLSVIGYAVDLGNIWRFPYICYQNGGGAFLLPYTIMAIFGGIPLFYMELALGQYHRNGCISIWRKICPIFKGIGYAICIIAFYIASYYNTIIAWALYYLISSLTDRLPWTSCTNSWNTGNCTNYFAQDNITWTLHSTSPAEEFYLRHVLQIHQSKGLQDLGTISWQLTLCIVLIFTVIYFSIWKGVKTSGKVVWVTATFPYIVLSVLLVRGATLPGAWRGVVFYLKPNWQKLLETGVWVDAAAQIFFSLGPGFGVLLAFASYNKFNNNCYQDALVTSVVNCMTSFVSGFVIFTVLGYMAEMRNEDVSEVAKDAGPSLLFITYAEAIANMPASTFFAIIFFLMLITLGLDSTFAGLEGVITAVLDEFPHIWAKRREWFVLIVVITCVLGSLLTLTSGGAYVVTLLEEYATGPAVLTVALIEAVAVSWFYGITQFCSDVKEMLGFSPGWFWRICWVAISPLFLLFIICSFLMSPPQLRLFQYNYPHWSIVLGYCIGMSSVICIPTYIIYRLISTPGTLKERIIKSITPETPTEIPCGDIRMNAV
Please keep in mind that the values are log10 of Ki expressed in nM.

Cc1ccc2c(OCCN3CCN(Cc4ccccc4)CC3)cccc2n1: 2.90

Fill in log10 Ki for record `CC(=O)Nc1ccccc1CN1CCN(CCOc2cccc3nc(C)ccc23)CC1`
4.00

Give a short answer stating reported log10 Ki for `CC(=O)N(C)c1cccc(CC2CCN(CCOc3cccc4nc(C)ccc34)CC2)c1` .
1.90

Tell me log10 Ki reported for `Cc1ccc2c(OCCN3CCC(Cc4cccc(NC(=O)CN(C)C)c4)CC3)cccc2n1`
2.60

----------
Recorded below: pKi, system UniProtKB P28222.
API: returns pKi as number; meaning -log10 of concentration in mol/L.

Cc1ccc2c(OCCN3CCC(Cc4cccc(NS(=O)(=O)C(C)C)c4)CC3)cccc2n1: 8.90
CCC(=O)Nc1cccc(CC2CCN(CCOc3cccc4nc(C)ccc34)CC2)c1: 7.80

// Input: `COc1ccc(CC2CCN(CCOc3cccc4nc(C)ccc34)CC2)cc1NS(C)(=O)=O` . Output its pKi only.
7.40

Input `Cc1ccc2c(OCCN3CCN(Cc4ccccc4)CC3)cccc2n1` , output reported pKi.
6.60

----------
Target: 5-hydroxytryptamine receptor 1B (Homo sapiens)
Sequence (P28222 whole entry): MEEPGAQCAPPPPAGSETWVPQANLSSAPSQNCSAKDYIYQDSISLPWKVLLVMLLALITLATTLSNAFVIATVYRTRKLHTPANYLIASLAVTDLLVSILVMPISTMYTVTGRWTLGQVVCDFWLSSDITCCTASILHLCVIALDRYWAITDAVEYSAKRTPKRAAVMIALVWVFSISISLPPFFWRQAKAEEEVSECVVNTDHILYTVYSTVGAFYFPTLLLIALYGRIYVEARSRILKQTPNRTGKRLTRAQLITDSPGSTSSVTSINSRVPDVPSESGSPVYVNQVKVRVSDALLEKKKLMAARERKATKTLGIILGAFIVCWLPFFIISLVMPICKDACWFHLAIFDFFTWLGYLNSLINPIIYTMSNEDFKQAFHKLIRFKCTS
Assay: Displacement of [3H]5HT from human recombinant 5HT1B receptor relative to control
Quantity Kind: Intrinsic activity
Response field accepts a number only; no unit should be typed.

Report measured Intrinsic activity on 5-hydroxytryptamine receptor 1B (Homo sapiens); entry: `Cc1ccc2c(OCCN3CCC(Cc4cccc(N5CCCS5(=O)=O)c4)CC3)cccc2n1`
0.5

----------
Experiment: Ratio of drug level in brain to blood in rat at 3 mg/kg, po
Assay type: ADME, organism-based
Set-up: dose 3 mg/kg, route oral
Details: read-out: BBR
Quantity Kind: Kp
Quick one: just the number, no unit, thanks!

Cc1ccc2c(OCCN3CCC(Cc4cccc(NS(C)(=O)=O)c4)CC3)cccc2n1: 0.2

Output measured Kp for this item: `Cc1ccc2c(OCCN3CCC(Cc4cccc(NC(=O)C(C)C)c4)CC3)cccc2n1`
2.3

Identify measured Kp associated with `CC(=O)Nc1cccc(CC2CCN(CCOc3cccc4nc(C)ccc34)CC2)c1`
1.1

Give the reported value of Kp for this record: `Cc1ccc2c(OCCN3CCC(Cc4cccc(N5CCCC5=O)c4)CC3)cccc2n1`
1.2

Respond only with Kp recorded for `Cc1ccc2c(OCCN3CCC(Cc4cccc(N5CCCS5(=O)=O)c4)CC3)cccc2n1`
0.9

----------
Biological target: UniProt:P28223
Sequence (P28223 whole entry): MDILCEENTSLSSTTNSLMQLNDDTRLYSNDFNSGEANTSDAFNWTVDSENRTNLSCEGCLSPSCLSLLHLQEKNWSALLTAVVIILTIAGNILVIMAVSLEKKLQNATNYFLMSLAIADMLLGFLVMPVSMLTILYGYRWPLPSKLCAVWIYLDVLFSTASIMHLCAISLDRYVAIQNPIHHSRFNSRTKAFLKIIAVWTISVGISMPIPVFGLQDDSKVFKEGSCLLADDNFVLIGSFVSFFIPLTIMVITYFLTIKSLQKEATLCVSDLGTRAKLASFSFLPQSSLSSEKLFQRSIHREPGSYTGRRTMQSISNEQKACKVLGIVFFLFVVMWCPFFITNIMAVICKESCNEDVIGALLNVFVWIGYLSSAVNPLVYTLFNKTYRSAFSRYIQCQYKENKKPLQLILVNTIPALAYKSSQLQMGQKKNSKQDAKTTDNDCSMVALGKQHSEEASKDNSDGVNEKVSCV
Test: Displacement of radioligand from human cloned 5HT2A receptor
Quantity Kind: Ki

Give the reported Ki for this compound. `Cc1ccc2c(OCCN3CCC(Cc4cccc(NS(C)(=O)=O)c4)CC3)cccc2n1`
2510 nM

----------
# maps each entry to its pKi
Target: UniProt P08908
Sequence (P08908 whole entry): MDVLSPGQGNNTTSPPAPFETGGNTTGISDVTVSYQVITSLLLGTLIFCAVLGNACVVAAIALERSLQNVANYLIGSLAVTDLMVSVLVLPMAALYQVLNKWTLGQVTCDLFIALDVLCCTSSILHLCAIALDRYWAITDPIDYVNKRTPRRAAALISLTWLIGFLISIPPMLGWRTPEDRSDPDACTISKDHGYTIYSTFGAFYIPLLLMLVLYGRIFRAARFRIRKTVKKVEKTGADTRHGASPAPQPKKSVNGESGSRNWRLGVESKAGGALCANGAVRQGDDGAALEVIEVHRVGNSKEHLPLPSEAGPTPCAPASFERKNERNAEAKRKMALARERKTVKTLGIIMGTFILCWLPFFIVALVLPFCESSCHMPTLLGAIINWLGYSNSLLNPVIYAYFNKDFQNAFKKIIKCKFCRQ
Expect pKi as a plain number equal to -log10 of the molar concentration.

Solved cases (4 shown):
Cc1ccc2c(OCCN3CCN(Cc4ccccc4)CC3)cccc2n1: 6.70
Cc1ccc2c(OCCN3CCC(Cc4cccc(NC(=O)C(C)C)c4)CC3)cccc2n1: 8.20
Cc1ccc2c(OCCN3CCC(Cc4cccc(NS(C)(=O)=O)c4)CC3)cccc2n1: 8.60
Cc1ccc2c(OCCN3CCC(Cc4cccc(NC(=O)CN(C)C)c4)CC3)cccc2n1: 7.80

Consider the molecule `CCN(C(C)=O)c1cccc(CC2CCN(CCOc3cccc4nc(C)ccc34)CC2)c1` tested on UniProt P08908; state its pKi.
8.30

Look up and report pKi, with UniProt P08908 as system, for `Cc1ccc2c(OCCN3CCC(Cc4cccc(N5CCCC5=O)c4)CC3)cccc2n1`
8.20

Look up UniProt P08908 data: pKi of `CC(=O)Nc1ccccc1CN1CCN(CCOc2cccc3nc(C)ccc23)CC1` , then report it.
5.90

Fill: pKi (UniProt P08908) for this molecule `Cc1ccc2c(OCCN3CCC(Cc4cccc(N(C)S(C)(=O)=O)c4)CC3)cccc2n1`
7.90

----------
Test: Volume of distribution at steady state in rat at 1 mg/kg, iv
Format: ADME, organism-based
Set-up: dose 1 mg/kg, route intravenous
Conditions: in vivo, read-out: Vdss
Below is a list of entries, each paired with its recorded Vd value.
// return numeric value only (unit: L/kg, not printed)

Guide cases for Vd, answers given:
Cc1ccc2c(OCCN3CCC(Cc4cccc(N5CCCS5(=O)=O)c4)CC3)cccc2n1: 0.9
CC(=O)Nc1cccc(CC2CCN(CCOc3cccc4nc(C)ccc34)CC2)c1: 1.2
Cc1ccc2c(OCCN3CCC(Cc4cccc(NC(=O)C(C)C)c4)CC3)cccc2n1: 1.8
Cc1ccc2c(OCCN3CCC(Cc4cccc(NS(C)(=O)=O)c4)CC3)cccc2n1: 1.6
CCN(C(C)=O)c1cccc(CC2CCN(CCOc3cccc4nc(C)ccc34)CC2)c1: 1.9

State its Vd for this molecule: `Cc1ccc2c(OCCN3CCC(Cc4cccc(N5CCCC5=O)c4)CC3)cccc2n1`
1.5

Give Vd for the following molecule: `CC(=O)N(C)c1cccc(CC2CCN(CCOc3cccc4nc(C)ccc34)CC2)c1`
2.2

----------
Biological target: 5-hydroxytryptamine receptor 7 (Homo sapiens, UniProt P34969)
Sequence (P34969 whole entry): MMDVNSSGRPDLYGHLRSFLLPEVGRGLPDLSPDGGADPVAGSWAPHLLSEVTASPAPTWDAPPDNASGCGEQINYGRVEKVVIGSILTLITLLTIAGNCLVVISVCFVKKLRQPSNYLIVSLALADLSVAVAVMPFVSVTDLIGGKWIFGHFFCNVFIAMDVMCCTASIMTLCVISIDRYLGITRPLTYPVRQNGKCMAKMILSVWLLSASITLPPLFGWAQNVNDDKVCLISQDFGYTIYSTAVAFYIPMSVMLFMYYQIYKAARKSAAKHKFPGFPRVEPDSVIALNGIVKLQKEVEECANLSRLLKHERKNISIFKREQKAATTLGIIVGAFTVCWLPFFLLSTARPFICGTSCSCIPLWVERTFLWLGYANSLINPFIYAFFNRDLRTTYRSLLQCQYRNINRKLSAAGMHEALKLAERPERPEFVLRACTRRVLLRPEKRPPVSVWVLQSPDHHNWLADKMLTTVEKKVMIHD
Quantity Kind: Ki (nM)
Write it as a number; the unit nM goes unstated.

Quick one: give measured Ki for `Cc1ccc2c(OCCN3CCC(Cc4cccc(NS(C)(=O)=O)c4)CC3)cccc2n1`
20

----------
Cmax reference
Assay: Cmax in rat brain at 3 mg/kg, po
Assay type: ADME, organism-based
Parameters: dose 3 mg/kg, route oral
Quick reminder: number only, in ng/g, skip the unit.

CCN(C(C)=O)c1cccc(CC2CCN(CCOc3cccc4nc(C)ccc34)CC2)c1: 234
Cc1ccc2c(OCCN3CCC(Cc4cccc(NS(C)(=O)=O)c4)CC3)cccc2n1: 346
Cc1ccc2c(OCCN3CCC(Cc4cccc(NC(=O)C(C)C)c4)CC3)cccc2n1: 175
Cc1ccc2c(OCCN3CCC(Cc4cccc(N5CCCC5=O)c4)CC3)cccc2n1: 410
CC(=O)N(C)c1cccc(CC2CCN(CCOc3cccc4nc(C)ccc34)CC2)c1: 190
CC(=O)Nc1cccc(CC2CCN(CCOc3cccc4nc(C)ccc34)CC2)c1: 221

Proceed to the following item.
Using known records, supply Cmax for `Cc1ccc2c(OCCN3CCC(Cc4cccc(N5CCCS5(=O)=O)c4)CC3)cccc2n1`
287
